assay: in vivo; conditions: B-NDG, mouse, iv, total radioactivity, Tumour/kidney
endpoint.name: tissue to tissue ratio at 3 h
// keep it numeric: no unit symbol after the value

INPUT: Tell me tissue to tissue ratio at 3 h reported for CCCCCC(=O)N[C@H]1CSCc2cc(CSCCNC(=O)CN3CCN(CC(=O)O)CCN(CC(=O)O)CCN(CC(=O)O)CC3)cc(c2)CSC[C@@H](C(=O)O)NC(=O)[C@H](Cc2ccccc2)NC(=O)[C@H](CCC(N)=O)NC(=O)[C@H]([C@@H](C)O)NC(=O)[C@@H]2CCCN2C(=O)[C@@H]2CCCN2C1=O [^68Ga-FAP-2286, metal not drawn]
OUTPUT: 0.87

---

The entries below come with measured tissue to tissue ratio at 24 h values attached.
test: PET/SPECT imaging test of labelled compounds in U-87 MG tumour-bearing mice; details: B-NDG, mouse, tumour and kidney, iv, total radioactivity
Numbered stars: 1 amine (or outer) side, 2 acyl side, 3 side chain; on linkers, the order of the positions; unused ones are H or OH. Bridge positions count the residues as written; N and C are the ends. Square brackets hold non-standard residues; d marks the D form. Peptide text beside a SMILES is read from it. * marks the point of attachment. TBMB(SCH2CH2NH-DOTA) = O=C(O)CN1CCN(CC(=O)O)CCN(CC(=O)NCCSCc2cc(C[*:1])cc(C[*:2])c2)CCN(CC(=O)O)CC1; Phe(2-CF3) = N[C@@H](Cc1ccccc1C(F)(F)F)C(=O)O; Hyp = O=C(O)[C@@H]1C[C@@H](O)CN1; Hexanoyl = CCCCCC(=O)*; Aib = CC(C)(N)C(=O)O

INPUT: Tell me tissue to tissue ratio at 24 h reported for CCCCCC(=O)N[C@H]1CSCc2cc(CSCCNC(=O)CN3CCN(CC(=O)O)CCN(CC(=O)O)CCN(CC(=O)O)CC3)cc(c2)CSC[C@@H](C(=O)O)NC(=O)[C@H](Cc2ccccc2)NC(=O)[C@H](CCC(N)=O)NC(=O)[C@H]([C@@H](C)O)NC(=O)[C@@H]2CCCN2C(=O)[C@@H]2CCCN2C1=O [^177Lu-FAP-2286, metal not drawn]
OUTPUT: 2.75

Let us move to another entry and its tissue to tissue ratio at 24 h.
INPUT: Tell me tissue to tissue ratio at 24 h reported for CCCCCC(=O)N[C@H]1CSCc2cc(CSCCNC(=O)CN3CCN(CC(=O)O)CCN(CC(=O)O)CCN(CC(=O)O)CC3)cc(c2)CSC[C@@H](C(=O)O)NC(=O)[C@H](Cc2ccccc2C(F)(F)F)NC(=O)[C@H](CCC(N)=O)NC(=O)[C@H]([C@@H](C)O)NC(=O)[C@@H]2C[C@@H](O)CN2C(=O)[C@@H]2CCCN2C(=O)C(C)(C)NC1=O [^177Lu-DOTA-09, metal not drawn] (Hexanoyl-C[Aib]P[Hyp]TQ[Phe(2-CF3)]C-OH; linker 1-8 via TBMB(SCH2CH2NH-DOTA))
OUTPUT: 19.4

---

Measured IC50 (FAPα (Homo sapiens, UniProt Q12884))
Numbered stars: 1 amine (or outer) side, 2 acyl side, 3 side chain; on linkers, the order of the positions; unused ones are H or OH. Bridge positions count the residues as written; N and C are the ends. Square brackets hold non-standard residues; d marks the D form. Peptide text beside a SMILES is read from it. * marks the point of attachment. TBMB(SCH2CH2NH-DOTA) = O=C(O)CN1CCN(CC(=O)O)CCN(CC(=O)NCCSCc2cc(C[*:1])cc(C[*:2])c2)CCN(CC(=O)O)CC1; X1 = O=C(O)CN1CCN(CC(=O)O)CCN(CC(=O)NCCSCc2cc(C[*:1])cc(C[*:2])c2)CC1; Phe(2-CF3) = N[C@@H](Cc1ccccc1C(F)(F)F)C(=O)O; Pro(trans-4-F) = O=C(O)[C@@H]1C[C@@H](F)CN1; Hyp = O=C(O)[C@@H]1C[C@@H](O)CN1; Hexanoyl = CCCCCC(=O)*; Aib = CC(C)(N)C(=O)O
// return numeric value only (unit: pM, not printed)

// solved cases for IC50 follow
INPUT: GET IC50 | system: FAPα (Homo sapiens, UniProt Q12884) | item: CCCCCC(=O)N[C@H]1CSCc2cc(CSCCNC(=O)CN3CCN(CC(=O)O)CCN(CC(=O)O)CCN(CC(=O)O)CC3)cc(c2)CSC[C@@H](C(=O)O)NC(=O)[C@H](Cc2ccccc2)NC(=O)[C@H](CCC(N)=O)NC(=O)[C@H]([C@@H](C)O)NC(=O)[C@@H]2C[C@@H](F)CN2C(=O)[C@@H]2CCCN2C(=O)C(C)(C)NC1=O [DOTA-12] (Hexanoyl-C[Aib]P[Pro(trans-4-F)]TQFC-OH; linker 1-8 via TBMB(SCH2CH2NH-DOTA))
OUTPUT: 1080

INPUT: GET IC50 | system: FAPα (Homo sapiens, UniProt Q12884) | item: CCCCCC(=O)N[C@H]1CSCc2cc(CSCCNC(=O)CN3CCN(CC(=O)O)CCN(CC(=O)O)CC3)cc(c2)CSC[C@@H](C(=O)O)NC(=O)[C@H](Cc2ccccc2)NC(=O)[C@H](CCC(N)=O)NC(=O)[C@H]([C@@H](C)O)NC(=O)[C@@H]2C[C@@H](O)CN2C(=O)[C@@H]2CCCN2C(=O)C(C)(C)NC1=O [NOTA-05] (Hexanoyl-C[Aib]P[Hyp]TQFC-OH; linker 1-8 via X1)
OUTPUT: 450

Let us move to another entry and its IC50.
INPUT: GET IC50 | system: FAPα (Homo sapiens, UniProt Q12884) | item: CCCCCC(=O)N[C@H]1CSCc2cc(CSCCNC(=O)CN3CCN(CC(=O)O)CCN(CC(=O)O)CCN(CC(=O)O)CC3)cc(c2)CSC[C@@H](C(=O)O)NC(=O)[C@H](Cc2ccccc2C(F)(F)F)NC(=O)[C@H](CCC(N)=O)NC(=O)[C@H]([C@@H](C)O)NC(=O)[C@@H]2C[C@@H](O)CN2C(=O)[C@@H]2CCCN2C(=O)C(C)(C)NC1=O [DOTA-09] (Hexanoyl-C[Aib]P[Hyp]TQ[Phe(2-CF3)]C-OH; linker 1-8 via TBMB(SCH2CH2NH-DOTA))
OUTPUT: 280

---

experiment: in vivo; conditions: B-NDG, mouse, iv, total radioactivity, Tumour/kidney
Numbered stars: 1 amine (or outer) side, 2 acyl side, 3 side chain; on linkers, the order of the positions; unused ones are H or OH. Bridge positions count the residues as written; N and C are the ends. Square brackets hold non-standard residues; d marks the D form. Peptide text beside a SMILES is read from it. * marks the point of attachment. TBMB(SCH2CH2NH-DOTA) = O=C(O)CN1CCN(CC(=O)O)CCN(CC(=O)NCCSCc2cc(C[*:1])cc(C[*:2])c2)CCN(CC(=O)O)CC1; Phe(2-CF3) = N[C@@H](Cc1ccccc1C(F)(F)F)C(=O)O; Hyp = O=C(O)[C@@H]1C[C@@H](O)CN1; Hexanoyl = CCCCCC(=O)*; Aib = CC(C)(N)C(=O)O
The entries below come with measured tissue to tissue ratio at 0.5 h values attached.
// keep it numeric: no unit symbol after the value

INPUT: Tell me tissue to tissue ratio at 0.5 h reported for CCCCCC(=O)N[C@H]1CSCc2cc(CSCCNC(=O)CN3CCN(CC(=O)O)CCN(CC(=O)O)CC3)cc(c2)CSC[C@@H](C(=O)O)NC(=O)[C@H](Cc2ccccc2)NC(=O)[C@H](CCC(N)=O)NC(=O)[C@H]([C@@H](C)O)NC(=O)[C@@H]2CCCN2C(=O)[C@@H]2CCCN2C1=O [^68Ga-NOTA-2286, metal not drawn, reference compound]
OUTPUT: 1.59

---
INPUT: Tell me tissue to tissue ratio at 0.5 h reported for CCCCCC(=O)N[C@H]1CSCc2cc(CSCCNC(=O)CN3CCN(CC(=O)O)CCN(CC(=O)O)CCN(CC(=O)O)CC3)cc(c2)CSC[C@@H](C(=O)O)NC(=O)[C@H](Cc2ccccc2C(F)(F)F)NC(=O)[C@H](CCC(N)=O)NC(=O)[C@H]([C@@H](C)O)NC(=O)[C@@H]2C[C@@H](O)CN2C(=O)[C@@H]2CCCN2C(=O)C(C)(C)NC1=O [^68Ga-DOTA-09, metal not drawn] (Hexanoyl-C[Aib]P[Hyp]TQ[Phe(2-CF3)]C-OH; linker 1-8 via TBMB(SCH2CH2NH-DOTA))
OUTPUT: 2.81

---

assay: PET/SPECT imaging test of labelled compounds in U-87 MG tumour-bearing mice; conditions: B-NDG, mouse, tumour and kidney, iv, total radioactivity
Numbered stars: 1 amine (or outer) side, 2 acyl side, 3 side chain; on linkers, the order of the positions; unused ones are H or OH. Bridge positions count the residues as written; N and C are the ends. Square brackets hold non-standard residues; d marks the D form. Peptide text beside a SMILES is read from it. * marks the point of attachment. TBMB(SCH2CH2NH-DOTA) = O=C(O)CN1CCN(CC(=O)O)CCN(CC(=O)NCCSCc2cc(C[*:1])cc(C[*:2])c2)CCN(CC(=O)O)CC1; Phe(2-CF3) = N[C@@H](Cc1ccccc1C(F)(F)F)C(=O)O; Hyp = O=C(O)[C@@H]1C[C@@H](O)CN1; Hexanoyl = CCCCCC(=O)*; Aib = CC(C)(N)C(=O)O
The entries below come with measured tissue to tissue ratio at 4 h values attached.
// keep it numeric: no unit symbol after the value

INPUT: Tell me tissue to tissue ratio at 4 h reported for CCCCCC(=O)N[C@H]1CSCc2cc(CSCCNC(=O)CN3CCN(CC(=O)O)CCN(CC(=O)O)CCN(CC(=O)O)CC3)cc(c2)CSC[C@@H](C(=O)O)NC(=O)[C@H](Cc2ccccc2C(F)(F)F)NC(=O)[C@H](CCC(N)=O)NC(=O)[C@H]([C@@H](C)O)NC(=O)[C@@H]2C[C@@H](O)CN2C(=O)[C@@H]2CCCN2C(=O)C(C)(C)NC1=O [^177Lu-DOTA-09, metal not drawn] (Hexanoyl-C[Aib]P[Hyp]TQ[Phe(2-CF3)]C-OH; linker 1-8 via TBMB(SCH2CH2NH-DOTA))
OUTPUT: 11.8

Let us move to another entry and its tissue to tissue ratio at 4 h.
INPUT: Tell me tissue to tissue ratio at 4 h reported for CCCCCC(=O)N[C@H]1CSCc2cc(CSCCNC(=O)CN3CCN(CC(=O)O)CCN(CC(=O)O)CCN(CC(=O)O)CC3)cc(c2)CSC[C@@H](C(=O)O)NC(=O)[C@H](Cc2ccccc2)NC(=O)[C@H](CCC(N)=O)NC(=O)[C@H]([C@@H](C)O)NC(=O)[C@@H]2CCCN2C(=O)[C@@H]2CCCN2C1=O [^177Lu-FAP-2286, metal not drawn]
OUTPUT: 9.82
